All figures here come from the supplement of paper PMC9170038.

# System: K4 kissing-loop RNA reporter;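 also: bound reporter read as fluorescence of individual clusters on recovered sequencing chips by microscopy, with normalized cluster intensities fitted with a binding model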
# Run Description: apparent KD of K4 kissing-loop reporter; higher = weaker reporter binding
# Setup Conditions: Eterna round: R107; input ligand: arginine 13.2 mM
For each record, write down the corresponding apparent KD of K4 kissing-loop reporter.
Answers are plain numbers, in nM.

{"Seq Text": "UGGAGUUGACGAAAAGUCAACUCCUGAGAUACCAGUGACGAAAGUCACCCUUGGCAGCUCACUGCCAGUGAUGUUGGAAAUAAAA [#01 K4 Theophylline A Same State]", "apparent KD of K4 kissing-loop reporter, nM": 182}
{"Seq Text": "GGAGUUACCUGGGAUACCAGUCGGAGUCUCAGAGCACAGAGUGAUGUUCUGGGAUGUUUCGGCCCUUGGCAGCUCUGGGACUCCA [#2 Exclusion - Theophylline B Attempt #14 (HarryS)]", "apparent KD of K4 kissing-loop reporter, nM": 359}
{"Seq Text": "UGUAUGGACUGAAGGAGCGCUAGGAAAGUGAGUGAUGUUCAUAUAAAAGUAUAAAGGGUUUGGCAGGUAGGUCGCAGUCCAUACU [KL-SSArg B5]", "apparent KD of K4 kissing-loop reporter, nM": 344}
{"Seq Text": "GCGUAUGAUGCUCAAAGAGUAUCUCCCGAUACCAGUAUGGAAACAUACCCUUGGCAGCGGGUAACUGCCCAGUGAUGUUGGACGC [Theophylline A K4 9]", "apparent KD of K4 kissing-loop reporter, nM": 253}
{"Seq Text": "AAGCCAAAGAUUGCUGCGGGUUCCAGAGAUACCAGCCGUAUUGAAGGCCCUUGGCAGCUCGAGUGAUGUUCGAGCCGUCUCUGGC [Lexerati]", "apparent KD of K4 kissing-loop reporter, nM": 117}

Switching to the query record.
Request: What does the data say about its apparent KD of K4 kissing-loop reporter? Entry: UGAUAGGACAGAAGGAGCGGAGGUCGUCAAAGACGACCAAUAACGUUGAUAGGAGUGAUGUUCCAGGUAGGUCGCUGUCCUAUCU [ArgBX 29 #SwitchBubble #StaticStem]
Response: 127

---

For each record, write down the corresponding apparent KD of MS2 coat protein.
# Test system: MS2 coat protein
# Run Description: apparent KD of MS2 coat protein, switch ON state; designed switch direction (-1 OFF switch, 1 ON switch): -1; higher = weaker reporter binding
# Setup Conditions: FMN input: 0 or 200 uM; Eterna round: R93 (includes R88 designs)
Number first, unit second: that is the form wanted.

Solved entries:
{"Seq Text": "AAAGGACGAGGAUAUACAUGAGGAUCACCCAUGUAAAAAACAUAGUCAAAGGGCUUGUGUAGAAGGCGUCCAAA [Meechl Ex3 2 R2 v11]", "apparent KD of MS2 coat protein": "50.2 nM"}
{"Seq Text": "AACAGUACAGGAUAUACAUGAGGAUCACCCAUGUGACAUAAAUAAAACAAAAAUAAAAGUAGAAGGGUACUGGA [Ruby 43]", "apparent KD of MS2 coat protein": "28.5 nM"}
{"Seq Text": "AAAAAUGGAGGAUAUACAUGAGGAUCACCCAUGUGUGGCCAUACUAUGUGGUCGUCAGGUAGAAGGCCAAAAAA [Gilly Gone Silly 23 - Jieux - Exclusion 3]", "apparent KD of MS2 coat protein": "24.9 nM"}
{"Seq Text": "AACAUGUCAGGAUAUGUAGCAUGAUACGAAAGUAUCAUGCUACAGAAGGGACAUGAGGAUCACCCAUGUGAUCA [Ex4: 940]", "apparent KD of MS2 coat protein": "26.7 nM"}
{"Seq Text": "AAGAACUCAGGAUAUACAUGAGGAUCACCCAUGUAAAAGAAAGAGGGAAAAGAGAAAAGUAGAAGGGAGAAGAA [Ptolemy IV Philopator]", "apparent KD of MS2 coat protein": "14 nM"}

Batch: apparent KD of MS2 coat protein for all items listed.
1. ACGAAACAUGAGGAUCACCCAUGUCAGGAUAUGAACGAAAAUAAAUAAAAAUAAAAGUUCAGAAGGGACGACGA [66%, Wbt, 24]
2. AAUACACAUGAGGAUCACCCAUGUAAGGAUAUCGAAAAAAAACUAAACAAAAAACAAACGAGAAGGUACAAAAA [Exclusion 1 design 4]
3. AUCGAUCGAGGAUAUACAUGAGGAUCACCCAUGUAAAAAAAAAAAAAGGCCUCAGGAUGUAGAAGGCGACGCAA [JR_Exc003_Sub403]
4. AAACGUUGAGGAUAUACGAAAAAGGGUAGGUCAAAAAAAACACAUGAGGAUCACCCAUGUAGAAGGCAACGAAA [Similarities v.1 (13nt loop FMN+)]
5. AACAUGUCAGGAUAUGCAAAAGGAGACUGACACGCGAGUGAGCAGAAGGGACAUGAGGAUCACCCAUGUUCAAA [Mat - Mod of Meechl]
6. AAAAAACAUGAGGAUCACCCAUGUAAGGAUAUGCUAAAAAACACGGAAAACGUGAAUAGCAGAAGGUACAAAAG [Mat - Exclusion 1 - Eli mod - D84]
7. AAAAACCUAGGAUAUACAUGAGGAUCACCCAUGUAAAGAAACAACAAGGGAAACACACGUAGAAGGAGGAAGAA [JR_Exc003_Sub1204]
8. AAGAAGAAAGGAUAUACAAGGAAGAAAGAAAAGAAAAGAAAACAUGAGGAUCACCCAUGUAGAAGGUUCUAGAA [EteRNA is fun!]

Response:
39.5 nM
30.4 nM
18.5 nM
71.4 nM
20.9 nM
15.9 nM
24.5 nM
15.2 nM

Batch: apparent KD of MS2 coat protein for all items listed.
1. AACAGUACAGGAUAUACAUGAGGAUCACCCAUGUGAAAAUUAAGUGGAGAACCACAGUGUAGAAGGGUACUGGA [Mat - Exclusion 3 - Eli mod - D52]
2. AAGAAGUCAGGAUAUGCUGCUCGUCACAAAAGUGAUGAGUAGCAGAAGGGACAUGAGGAUCACCCAUGUAAAGA [JL eternac mod 0]
3. GAAGAACAUGAGGAUCACCCAUGUGAGGAUAUACAGAAGGGAAUAAAAUAACCUGAAAGUAGAAGGCACAAGAA [Ex 1 May 41]
4. AAAAGGUGAGGAUAUAGGAAAAUAAAAGAAAAUAAAAGAAACUAGAAGGCACAUGAGGAUCACCCAUGUAAUAA [LROPPY Exclusion 4 - v03_deltaG=3.54 break up the As mixed]

Response:
1: 142 nM; 2: 52 nM; 3: 45.7 nM; 4: 28.7 nM
